The entries below come with measured activity change, negative = inhibition values attached.
protocol: NFAT Signaling Pathway (AID 444);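 further: carbachol stimulus at about its EC50 of 1 µM final; on the % scale 0 is the no-effect control and ±100 the full control effect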
condition.label: Jurkat NFAT-bla M1, carbachol, beta-lactamase ratio, 5 h; at 7.69 µM (top of the series) unless noted
Results filed as inconclusive are left out.
State the answer as a number, implicitly in %.

# count of solved cases: 5
COc1ccc(-c2nc3cnc(N4CCOCC4)nc3n(-c3ccccc3)c2=O)cc1 = 23.9
COc1ccc(C(=O)N2CCC3(CCCN(Cc4ccncc4)C3)CC2)cc1 = -17.9
c1ccc(Nc2cc(-c3ccoc3)ncn2)cc1 = -0.633
COc1ccc(-c2nc3cnc(Oc4cccc(Cl)c4)nc3n(C3CC3)c2=O)cc1 = -3.56
Cn1c(=O)c(-c2cc(F)cc(F)c2)nc2cnc(Oc3ccccc3)nc21 = 3.31

In: Report activity change, negative = inhibition for "COCC(=O)N1CCC2(CC1)CN(C(=O)Nc1cccc(F)c1)C2" please.
Out: 9.78

In: Report activity change, negative = inhibition for "CN(C)c1nc(-c2ccoc2)nc2ccccc12" please.
Out: -9.32
